FGFR1/FGFR3 IC50 ratio reference
Subject of test: FGFR3 enzyme (Homo sapiens (Human))
Sequence (P22607 23-806): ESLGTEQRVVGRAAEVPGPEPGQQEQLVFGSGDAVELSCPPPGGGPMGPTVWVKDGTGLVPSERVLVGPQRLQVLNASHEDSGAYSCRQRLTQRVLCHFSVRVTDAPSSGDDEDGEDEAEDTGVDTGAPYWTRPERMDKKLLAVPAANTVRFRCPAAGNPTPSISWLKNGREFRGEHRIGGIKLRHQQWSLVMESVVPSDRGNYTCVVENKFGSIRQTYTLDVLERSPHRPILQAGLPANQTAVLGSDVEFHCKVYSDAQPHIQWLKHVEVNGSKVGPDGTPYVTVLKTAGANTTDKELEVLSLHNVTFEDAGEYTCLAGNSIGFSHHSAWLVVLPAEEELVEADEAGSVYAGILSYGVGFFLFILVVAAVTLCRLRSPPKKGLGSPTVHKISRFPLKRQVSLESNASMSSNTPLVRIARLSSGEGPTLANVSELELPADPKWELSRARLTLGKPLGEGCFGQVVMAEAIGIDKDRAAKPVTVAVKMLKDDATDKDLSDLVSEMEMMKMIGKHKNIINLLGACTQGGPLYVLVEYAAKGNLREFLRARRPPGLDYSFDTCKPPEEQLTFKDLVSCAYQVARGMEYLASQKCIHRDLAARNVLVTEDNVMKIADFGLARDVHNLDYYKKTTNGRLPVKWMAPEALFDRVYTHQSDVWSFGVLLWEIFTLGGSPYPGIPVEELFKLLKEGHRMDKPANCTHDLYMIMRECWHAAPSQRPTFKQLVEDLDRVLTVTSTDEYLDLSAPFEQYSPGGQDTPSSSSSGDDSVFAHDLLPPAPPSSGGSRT
Experiment notes: FGFR Enzymatic Assay (FRET peptide phosphorylation), FGFR3
Type: biochemical
Conditions: FGFR3 selectivity; pre-incubated for 4 hours

Q: Value lookup for FGFR1/FGFR3 IC50 ratio; key = COc1cc(OC)c(F)c(N2Cc3cnc(-c4cn(C)nc4C)cc3N(Cc3cnn(CC#N)c3)C2=O)c1F
Ans: >5

Q: Look at this compound and give its reported FGFR1/FGFR3 IC50 ratio. COc1cc(OC)c(F)c(N2Cc3cnc(-c4cn(CC(=O)N5CCOCC5)nc4C)cc3C3(CC3)C2=O)c1F
Ans: >5

Q: Consider the compound shown here: CNC(=O)c1ccc(-c2cc3c(cn2)CN(c2c(F)c(OC)cc(OC)c2F)C(=O)C32CC2)cc1 What is its recorded FGFR1/FGFR3 IC50 ratio?
Ans: >5

Q: Given the compound CCN1C(=O)N(c2c(F)c(OC)cc(OC)c2F)Cc2cnc(-c3ccc(C4(C#N)CCC4)cc3)cc21 , what is its reported FGFR1/FGFR3 IC50 ratio?
Ans: >5

Q: Could you share which FGFR1/FGFR3 IC50 ratio value was measured for COc1ccc(N2C(=O)N(c3c(F)c(OC)cc(OC)c3F)Cc3cnc(-c4cn(C)nc4C)cc32)cc1 ?
Ans: >3

Q: What FGFR1/FGFR3 IC50 ratio value was documented for this compound, CNC(=O)c1ccc(CN2C(=O)N(c3c(F)c(OC)cc(OC)c3F)Cc3cnc(-c4cn(C)nc4C)cc32)cc1 ?
Ans: >10

---

Entries and their IC50
Subject of test: UniProt P21802
Sequence (P21802 22-821): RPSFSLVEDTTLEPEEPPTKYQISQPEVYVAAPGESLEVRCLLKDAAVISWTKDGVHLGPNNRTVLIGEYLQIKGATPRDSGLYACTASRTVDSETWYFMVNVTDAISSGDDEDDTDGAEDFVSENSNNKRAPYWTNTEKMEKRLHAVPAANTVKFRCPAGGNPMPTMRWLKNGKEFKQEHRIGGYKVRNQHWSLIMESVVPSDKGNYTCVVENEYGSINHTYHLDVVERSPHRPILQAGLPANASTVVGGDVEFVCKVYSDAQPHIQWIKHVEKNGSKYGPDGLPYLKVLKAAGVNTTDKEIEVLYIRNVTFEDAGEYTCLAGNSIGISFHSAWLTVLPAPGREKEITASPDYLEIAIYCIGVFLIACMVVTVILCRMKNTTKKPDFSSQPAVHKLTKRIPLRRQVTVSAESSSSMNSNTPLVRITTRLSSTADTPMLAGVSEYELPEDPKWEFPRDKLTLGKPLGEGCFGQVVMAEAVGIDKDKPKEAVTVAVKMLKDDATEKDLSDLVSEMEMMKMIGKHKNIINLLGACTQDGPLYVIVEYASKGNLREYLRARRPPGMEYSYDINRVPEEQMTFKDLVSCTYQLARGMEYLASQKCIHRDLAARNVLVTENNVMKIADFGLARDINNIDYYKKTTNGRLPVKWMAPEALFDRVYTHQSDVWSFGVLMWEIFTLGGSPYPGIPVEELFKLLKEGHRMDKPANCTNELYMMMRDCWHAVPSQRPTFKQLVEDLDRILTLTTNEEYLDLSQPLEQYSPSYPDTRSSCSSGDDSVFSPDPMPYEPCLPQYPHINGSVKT
Experiment notes: FGFR Enzymatic Assay (FRET peptide phosphorylation), FGFR2
Type: biochemical
Conditions: pre-incubated for 4 hours

Example entries begin here.
{"Compound": "COc1cc(OC)c(F)c(N2Cc3cnc(-c4cn(CC#N)nc4C)cc3C3(CC3)C2=O)c1F [Example 153]", "Result": "10 to 30 nM"}
{"Compound": "COc1cc(OC)c(F)c(N2Cc3cnc(-c4cn(C)nc4C)cc3N(Cc3cccnn3)C2=O)c1F [Example 88]", "Result": "< 10 nM"}
{"Compound": "COc1cc(OC)c(F)c(N2Cc3cnc(-c4cncc(CN5CCOCC5)c4)cc3C3(CC3)C2=O)c1F [Example 16]", "Result": "30 to 200 nM"}
{"Compound": "COc1cc(OC)c(F)c(N2Cc3cnc(-c4cn(C)nc4C)cc3N(Cc3ccc(F)c(F)c3)C2=O)c1F [Example 73]", "Result": "10 to 30 nM"}
{"Compound": "COc1cc(OC)c(F)c(N2Cc3cnc(-c4cncc(S(=O)(=O)N5CCOCC5)c4)cc3C3(CC3)C2=O)c1F [Example 14]", "Result": "30 to 200 nM"}

Q: Quick one: IC50 of COC(=O)N1CCC(N2C(=O)N(c3c(F)c(OC)cc(OC)c3F)Cc3cnc(-c4cn(C)nc4C)cc32)CC1 [Example 122] ?
Ans: 10 to 30 nM

---

Subject of test: FGFR1 (Homo sapiens (Human))
Sequence (P11362 22-822): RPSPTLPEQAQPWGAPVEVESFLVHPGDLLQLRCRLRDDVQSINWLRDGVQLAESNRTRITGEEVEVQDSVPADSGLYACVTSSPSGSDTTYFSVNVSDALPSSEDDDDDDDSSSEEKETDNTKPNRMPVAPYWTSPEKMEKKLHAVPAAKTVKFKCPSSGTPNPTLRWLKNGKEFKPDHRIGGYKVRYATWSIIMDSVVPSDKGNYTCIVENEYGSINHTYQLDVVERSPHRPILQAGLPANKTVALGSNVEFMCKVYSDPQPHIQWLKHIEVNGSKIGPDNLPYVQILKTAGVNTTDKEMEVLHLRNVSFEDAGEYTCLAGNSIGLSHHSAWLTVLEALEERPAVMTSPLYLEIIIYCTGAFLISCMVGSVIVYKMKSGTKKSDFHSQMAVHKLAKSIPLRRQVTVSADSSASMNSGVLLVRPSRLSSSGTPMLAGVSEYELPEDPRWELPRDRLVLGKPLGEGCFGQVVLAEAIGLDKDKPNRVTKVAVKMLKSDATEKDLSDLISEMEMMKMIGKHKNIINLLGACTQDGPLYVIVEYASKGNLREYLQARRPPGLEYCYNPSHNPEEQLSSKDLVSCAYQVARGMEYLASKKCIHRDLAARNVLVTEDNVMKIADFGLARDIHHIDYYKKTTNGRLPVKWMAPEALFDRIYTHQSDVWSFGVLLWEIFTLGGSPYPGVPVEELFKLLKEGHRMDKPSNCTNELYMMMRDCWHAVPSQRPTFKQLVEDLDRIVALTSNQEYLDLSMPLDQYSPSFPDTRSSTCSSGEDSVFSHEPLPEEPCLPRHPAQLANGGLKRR
Experiment notes: FGFR Enzymatic Assay (FRET peptide phosphorylation), FGFR1
Conditions: read-out: FGFR1 IC50; pre-incubated for 4 hours
Readout kind: IC50

Use these answered entries as a reference point.
{"Compound": "COc1cc(OC)c(F)c(N2Cc3cnc(-c4cc(N)ccc4C#N)cc3C3(CC3)C2=O)c1F", "Readout kind": "IC50", "Result": "> 200 nM"}
{"Compound": "CCN1C(=O)N(c2c(F)c(OC)cc(OC)c2F)Cc2cnc(-c3cnn(C)c3)cc21", "Readout kind": "IC50", "Result": "< 10 nM"}
{"Compound": "COc1cc(OC)c(F)c(N2Cc3cnc(-c4cn(C)nc4C)cc3N(c3ccc(F)c(C#N)c3)C2=O)c1F", "Readout kind": "IC50", "Result": "> 200 nM"}
{"Compound": "COc1cc(OC)c(F)c(N2Cc3cnc(-c4cnn(C5CCN(C(C)=O)C5)c4)cc3C3(CC3)C2=O)c1F (stereo not shown)", "Readout kind": "IC50", "Result": "< 10 nM"}
{"Compound": "COc1cc(OC)c(F)c(N2Cc3cnc(-c4cc(N)cnc4C)cc3C3(CC3)C2=O)c1F", "Readout kind": "IC50", "Result": "> 200 nM"}

Q: Given the compound COc1cc(OC)c(F)c(N2Cc3cnc(-c4cnn(C5(CC#N)CN(C(C)=O)C5)c4)cc3C3(CC3)C2=O)c1F , what is its reported IC50?
Ans: > 200 nM

Q: Give the measured IC50 of COc1cc(OC)c(F)c(N2Cc3cnc(-c4nn(C)cc4C#N)cc3C3(CC3)C2=O)c1F .
Ans: > 200 nM

Reference source: patent US9708318B2
